Each entry below lists one item and its recorded composite z-score value.
Experiment: probe aNOTCH2 binding on compound microarray – biochemical, small-molecule microarray, 635/667 nm fluorescence, primary screen (AID 1121);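 further: score merges feature fluorescence read at 667 nm with its signal to noise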
Settings: higher = more signal
Answer with the value's number alone.

compound="CCC1=C2CN(Cc3ccccc3)[C@@H](C(=O)Cc3ccccc3)C2C=CCC1 (stereo partly drawn)" property_label="composite z-score" meas_value=-0.149
compound="CCN(CC)c1ccc(N2CC=CC34O[C@@H]5/C=C\\CCCOC(=O)C5[C@H]3C(=O)N(C(C)CO)[C@@H]4C2=O)cc1 (stereo partly drawn)" property_label="composite z-score" meas_value=-0.0862
compound=CCCN1C(=O)[C@]2(Cc3ccccc31)N=C(c1ccc(OCCCO)cc1)O[C@@H]2c1ccccc1 property_label="composite z-score" meas_value=-0.125
compound="COc1cc(NN2C(C(O)c3ccco3)C=CC3C(=O)N(C)C(=O)C32)cc(OC)c1OC (stereo not drawn)" property_label="composite z-score" meas_value=0.267

Query: Param item = CS(=O)(=O)CCOC(=O)C1=CC(CCCO)=CC(c2ccc(CN3CCCC3)cc2)N(Cc2sc3ccccc3c2Cl)C=C1C(=O)OCCS(C)(=O)=O (stereo not drawn) ; retrieve measured composite z-score.
Response: 0.251

Query: Would you kindly repeat that for CCCC=C(CCC)[C@@H](NC(=O)C(C)(C)C)c1ccc(C(=O)OC)cc1 ?
Response: 0.0199

Query: Field entry: CC(=O)N1CC2(CC2)CC1c1ccccc1 (stereo not drawn)
Response: 0.172

Query: Try NC(=O)NCC#Cc1ccc2c(c1)[C@]1(C(=O)N2)[C@H](c2ccccc2OCCO)N2[C@H](c3ccccc3)[C@H](c3ccccc3)OC(=O)[C@H]2[C@@H]1C(=O)O next.
Response: -0.0772
